- assay remarks: chemical genetic growth profiling, strain panel (AID 1159580);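 further: tested at 20 µM; growth read once vehicle control cultures reached saturation at 30 °C; 1 = growth at the plate median or of vehicle wells; lower values mean less growth of the strain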
- details: S. cerevisiae deletion strains, growth OD, locus YOL012C, strain htz1
The whole screen tested about 5,500 compounds, of which about 2,000 (36%) were called active. About 18% were inconclusive and are not listed. This is one part of the list.
readout type: normalized growth

Q: Give the value of normalized growth reported for the following: CC(=O)OCC(CCn1cnc2cnc(N)nc21)COC(C)=O
A: 0.703 (inactive)

Q: Give the value of normalized growth reported for the following: COc1ccc(C[C@H]2NC[C@H](O)[C@H]2OC(C)=O)cc1
A: 2.18 [resistant] (active)

Q: Give the value of normalized growth reported for the following: COc1ccc(-c2coc3c(OC)c(OC)cc(O)c3c2=O)cc1
A: 0.766 (inactive)

Q: Give the value of normalized growth reported for the following: Cc1c(N(C)C)c(=O)n(-c2ccccc2)n1C
A: 2 (inactive)

Q: Give the value of normalized growth reported for the following: CCc1nc(N)nc(N)c1-c1ccc(Cl)cc1
A: 0.833 (inactive)

Q: Give the value of normalized growth reported for the following: COC(=O)[C@@H]1C(O)CC[C@H]2CN3CCc4c([nH]c5ccccc45)[C@@H]3C[C@@H]21 (stereo partly drawn)
A: 0.815 (inactive)

Q: Give the value of normalized growth reported for the following: CCOC(=O)/C=C(\C)OP(=O)(OC)OC
A: 0.854 (inactive)

Q: Give the value of normalized growth reported for the following: COc1cc2c(cc1OC)C(=O)C(CC1CCN(Cc3ccccc3)CC1)C2 (stereo not drawn)
A: 1.03 (inactive)

Q: Give the value of normalized growth reported for the following: CC(C(=O)O)c1ccc2c(c1)[nH]c1ccc(Cl)cc12 (stereo not drawn)
A: 0.756 (inactive)

Q: Give the value of normalized growth reported for the following: CCCCOc1ccc(OCCCN2CCOCC2)cc1
A: 1.06 (inactive)

Q: Give the value of normalized growth reported for the following: CC(C)=CCc1c(O)cc(C)oc1=O
A: 0.881 (inactive)

Q: Give the value of normalized growth reported for the following: COc1cccc2c1CCC1CC(=O)CCC21C (stereo not drawn)
A: 0.835 (inactive)

Q: Give the value of normalized growth reported for the following: CC(C)=CCc1c(O)cc2oc(C)cc(=O)c2c1O
A: 1.24 (inactive)
